Measured (IC50 CDK12 high ATP) to (Degradation DC50 CDK12) ratio, listed per entry.
- measured_target: CDK12 (nuclear staining in CAL-120 cells) (Homo sapiens)
- Construct: endogenous in cells; host or cells: CAL-120 human breast cancer cells (DSMZ ACC 459)
- Sequence (Q9NYV4 whole entry): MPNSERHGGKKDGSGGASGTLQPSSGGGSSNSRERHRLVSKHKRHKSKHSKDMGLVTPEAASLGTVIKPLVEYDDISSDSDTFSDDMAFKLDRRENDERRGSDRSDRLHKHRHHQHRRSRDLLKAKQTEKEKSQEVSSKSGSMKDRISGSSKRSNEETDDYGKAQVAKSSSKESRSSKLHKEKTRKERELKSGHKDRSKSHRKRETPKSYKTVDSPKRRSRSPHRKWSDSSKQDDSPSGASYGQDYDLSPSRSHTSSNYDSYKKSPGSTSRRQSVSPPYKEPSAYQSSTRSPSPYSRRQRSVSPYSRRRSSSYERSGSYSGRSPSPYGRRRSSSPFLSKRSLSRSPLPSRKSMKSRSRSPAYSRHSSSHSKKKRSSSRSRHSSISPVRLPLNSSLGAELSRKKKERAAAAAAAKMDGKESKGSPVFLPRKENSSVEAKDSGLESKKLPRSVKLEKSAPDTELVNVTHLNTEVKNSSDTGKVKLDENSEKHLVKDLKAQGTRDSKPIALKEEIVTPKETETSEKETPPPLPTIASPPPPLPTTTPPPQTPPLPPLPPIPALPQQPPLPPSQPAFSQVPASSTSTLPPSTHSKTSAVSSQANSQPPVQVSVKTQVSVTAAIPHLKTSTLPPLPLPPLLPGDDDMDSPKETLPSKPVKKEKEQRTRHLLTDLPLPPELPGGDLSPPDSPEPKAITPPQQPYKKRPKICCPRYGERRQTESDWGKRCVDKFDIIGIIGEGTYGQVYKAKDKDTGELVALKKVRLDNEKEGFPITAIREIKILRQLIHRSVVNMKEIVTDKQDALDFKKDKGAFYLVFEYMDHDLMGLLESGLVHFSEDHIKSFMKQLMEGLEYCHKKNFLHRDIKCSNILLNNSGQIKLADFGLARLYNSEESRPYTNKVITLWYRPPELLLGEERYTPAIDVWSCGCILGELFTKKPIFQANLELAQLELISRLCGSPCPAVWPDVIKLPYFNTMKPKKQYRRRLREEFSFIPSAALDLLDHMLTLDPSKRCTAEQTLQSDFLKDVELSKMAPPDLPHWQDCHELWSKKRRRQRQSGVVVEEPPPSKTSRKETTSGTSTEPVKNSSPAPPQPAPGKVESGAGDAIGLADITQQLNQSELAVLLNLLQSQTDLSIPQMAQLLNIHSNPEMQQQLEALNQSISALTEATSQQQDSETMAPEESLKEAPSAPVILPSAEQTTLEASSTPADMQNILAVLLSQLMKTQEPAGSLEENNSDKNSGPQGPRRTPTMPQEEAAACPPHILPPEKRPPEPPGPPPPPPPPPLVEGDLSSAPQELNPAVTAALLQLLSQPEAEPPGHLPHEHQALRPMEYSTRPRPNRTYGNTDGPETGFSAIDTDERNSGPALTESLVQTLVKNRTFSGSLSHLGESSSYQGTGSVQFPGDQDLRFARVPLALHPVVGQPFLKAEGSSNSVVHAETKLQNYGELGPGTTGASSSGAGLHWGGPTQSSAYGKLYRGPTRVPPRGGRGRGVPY
- Sequence (O75909 whole entry partner): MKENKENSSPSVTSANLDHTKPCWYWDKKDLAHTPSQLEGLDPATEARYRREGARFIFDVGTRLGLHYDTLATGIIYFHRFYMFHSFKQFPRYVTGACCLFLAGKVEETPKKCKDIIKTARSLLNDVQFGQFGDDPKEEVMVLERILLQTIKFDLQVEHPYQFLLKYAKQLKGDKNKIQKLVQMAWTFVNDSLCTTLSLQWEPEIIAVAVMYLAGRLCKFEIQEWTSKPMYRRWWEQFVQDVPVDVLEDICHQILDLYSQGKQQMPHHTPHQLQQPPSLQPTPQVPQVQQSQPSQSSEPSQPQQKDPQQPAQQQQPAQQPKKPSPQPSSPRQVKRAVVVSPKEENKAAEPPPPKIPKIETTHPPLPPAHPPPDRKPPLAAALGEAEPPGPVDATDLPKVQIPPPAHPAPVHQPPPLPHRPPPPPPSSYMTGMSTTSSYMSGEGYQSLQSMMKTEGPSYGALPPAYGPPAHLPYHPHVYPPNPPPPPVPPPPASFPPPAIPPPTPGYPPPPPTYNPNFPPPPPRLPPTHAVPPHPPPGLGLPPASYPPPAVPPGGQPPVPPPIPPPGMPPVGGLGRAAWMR
- test_protocol: CDK12 nuclear protein level: immunofluorescence/high content analysis (CAL-120)
- Format: cell-based
- test_parameters: ratio of IC50 CDK12 high ATP kinase assay to DC50 CDK12 degradation (IF, CAL-120)

In the examples that follow, each entry is paired with its recorded (IC50 CDK12 high ATP) to (Degradation DC50 CDK12) ratio.
CN1CCN(c2nc(NCc3nc4ccccc4[nH]3)n3ncc(C4CC4)c3n2)CC1 [Example 246] = >4287
CN1CCN(c2nc(NCc3nc4c(F)c(F)ccc4[nH]3)n3ncc(CC(F)(F)F)c3n2)CC1 [Example 437] = >11369
COc1ccccc1-c1nnc(CNc2nc(N3CCN(C)CC3)nc3c(C4CC4(F)F)cnn23)[nH]1 (stereo not drawn) [Example 430] = >789
CN(C)[C@H]1CCN(c2nc(NCc3nc4ccccc4[nH]3)n3ncc(Br)c3n2)C1 [Example 177] = >561

Lookup: For the compound COc1cccc2nc(CNc3nc(N4CCN(C)CC4)nc4c(-c5nccs5)cnn34)[nH]c12 [Example 416] , report (IC50 CDK12 high ATP) to (Degradation DC50 CDK12) ratio.
Found: >765

Lookup: Annotate the compound CN[C@H]1CCN(c2nc(NCc3nc4ccccc4[nH]3)n3ncc(Br)c3n2)C1 [Example 252] with its measured (IC50 CDK12 high ATP) to (Degradation DC50 CDK12) ratio.
Found: >17030

The reported numbers originate from patent US20230117034A1.
